Ref: ChEMBL document CHEMBL2407045

measure.name: pKi
The value called pKi is obtained by taking minus log10 of the concentration in mol/L.

Data request: Determine reported pKi for COc1cc([C@@H]2Nc3ccc(C(=N)N)cc3[C@H]3c4ccccc4C[C@H]32)c(-c2cccc(C(=O)O)c2)cc1O (racemic) ; test system: Coagulation factor X (Homo sapiens, UniProt P00742).
Sequence (P00742 41-179 limits assumed): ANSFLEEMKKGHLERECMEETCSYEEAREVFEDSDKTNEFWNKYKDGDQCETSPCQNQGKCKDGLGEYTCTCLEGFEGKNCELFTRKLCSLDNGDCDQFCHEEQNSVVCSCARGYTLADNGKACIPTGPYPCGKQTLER
Sequence (P00742 235-488 limits assumed): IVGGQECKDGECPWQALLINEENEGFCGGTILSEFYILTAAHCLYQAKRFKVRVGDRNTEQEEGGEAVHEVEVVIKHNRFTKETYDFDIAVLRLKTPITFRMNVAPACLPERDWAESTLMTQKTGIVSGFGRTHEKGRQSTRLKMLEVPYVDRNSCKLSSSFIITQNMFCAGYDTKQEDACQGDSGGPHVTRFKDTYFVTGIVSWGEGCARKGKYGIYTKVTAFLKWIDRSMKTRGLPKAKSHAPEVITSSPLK
Data returned: 5.82

Data request: Recall the reported pKi of COc1cc([C@@H]2Nc3ccc(C(=N)N)cc3[C@H]3c4ccccc4C[C@H]32)c(-c2ccccc2C(=O)O)cc1O (racemic) on Coagulation factor X (Homo sapiens, UniProt P00742) and write it down.
Data returned: 7.80

* * *

- target.of.assay: Prothrombin (Homo sapiens, UniProt P00734)
measure.name: Ki (nM)
Only the number, expressed in nM, is required.

Data request: Identify measured Ki associated with COc1cc([C@@H]2Nc3ccc(C(=N)N)cc3[C@H]3c4ccccc4C[C@H]32)ccc1O (racemic)
Data returned: 300

* * *

For each record, write down the corresponding Ki.
- target.of.assay: Coagulation factor VII (Homo sapiens)
- Sequence (P08709 whole entry): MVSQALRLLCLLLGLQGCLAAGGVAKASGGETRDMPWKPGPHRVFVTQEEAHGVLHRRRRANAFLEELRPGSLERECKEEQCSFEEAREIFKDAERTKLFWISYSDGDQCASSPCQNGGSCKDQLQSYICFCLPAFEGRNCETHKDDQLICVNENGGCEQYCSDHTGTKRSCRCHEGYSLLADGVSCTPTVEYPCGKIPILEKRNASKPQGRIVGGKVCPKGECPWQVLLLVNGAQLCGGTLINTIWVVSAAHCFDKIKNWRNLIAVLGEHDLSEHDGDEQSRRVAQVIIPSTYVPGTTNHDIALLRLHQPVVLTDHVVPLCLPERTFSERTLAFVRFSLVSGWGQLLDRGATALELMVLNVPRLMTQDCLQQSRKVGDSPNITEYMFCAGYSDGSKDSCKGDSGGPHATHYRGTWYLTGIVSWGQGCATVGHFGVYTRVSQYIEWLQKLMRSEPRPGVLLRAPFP
- assay.comment: Inhibition of recombinant human coagulation factor 7A
Use nM as the unit, but write only the number.

Data request: Report value only: Ki, Coagulation factor VII (Homo sapiens), COc1cc([C@H]2C[C@H](c3ccccc3)c3cc(C(=N)N)ccc3N2)ccc1O
Data returned: 1800

Data request: Lab note: Coagulation factor VII (Homo sapiens) assay, enter Ki for COc1cc([C@@H]2Nc3ccc(C(=N)N)cc3[C@H]3c4ccccc4C[C@H]32)c(-c2cccc(C(=O)O)c2)cc1O (racemic) here
Data returned: 8.1

Data request: Provide measured Ki on Coagulation factor VII (Homo sapiens) for COc1cc([C@@H]2Nc3ccc(C(=N)N)cc3[C@H]3c4ccccc4C[C@H]32)c(-c2ccc(C(=O)O)cc2)cc1O (racemic) please.
Data returned: 1.9

Data request: Check Coagulation factor VII (Homo sapiens) data and give Ki for COc1cc([C@@H]2Nc3ccc(C(=N)N)cc3[C@H]3c4ccccc4C[C@H]32)c(-c2ccccc2C(=O)O)cc1O (racemic) .
Data returned: 0.62

Data request: Report the value of Ki obtained on Coagulation factor VII (Homo sapiens) for C[C@]1(c2ccccc2)C[C@H](c2ccc(O)cc2)Nc2ccc(C(=N)N)cc21 .
Data returned: 8800

Data request: Find Ki for COc1cc([C@@H]2Nc3ccc(C(=N)N)cc3[C@H]3c4ccccc4C[C@H]32)ccc1O (racemic) on Coagulation factor VII (Homo sapiens) and write it down.
Data returned: 160
